Test system: NCI-H23 lung
Experiment: NCI tumour cell line growth inhibition, 48 h
Outcome label depends on TGI relative to 20 µM: at/above gives criterion met, below gives criterion not met.

// query Confirm if TGI reported for the molecule "Clc1ccc(Cl)c(SCCCN2CCNCC2)c1" is 20 µM or above.
// result criterion met

// query Confirm if TGI reported for the molecule "O=C1C(=O)N(c2cc(Cl)ccc2Cl)C(=O)C(=O)C1c1nc2ccccc2o1" is 20 µM or above.
// result criterion met

// query Confirm if TGI reported for the molecule "N.N.NCCCCCCCCCN.O=C([O-])CC(=O)[O-].O=C([O-])CC(=O)[O-].[Pt+4].[Pt+4]" is 20 µM or above.
// result criterion met

// query Confirm if TGI reported for the molecule CC1CN1c1c(C(=O)/C=C/c2ccc(Cl)cc2)c(-c2ccccc2)nn(C)c1=O (stereo not given) is 20 µM or above.
// result criterion not met

// query Confirm if TGI reported for the molecule OCC(O)CNc1ccnc2cc(Cl)ccc12 (stereo not given) is 20 µM or above.
// result criterion met

// query Confirm if TGI reported for the molecule "CCCCCc1ccc(S(=O)(=O)Nc2cc(-c3csc(NC(C)=O)n3)ccc2N2CCN(C)CC2)cc1" is 20 µM or above.
// result criterion not met

// query Confirm if TGI reported for the molecule "O=C(CCCN1CCC2(CC1)C(=NC1CCCCC1)NC(=O)N2c1ccccc1)c1ccc(F)cc1" is 20 µM or above.
// result criterion met

// query Confirm if TGI reported for the molecule "COc1cc(C2C(C(=O)Nc3cc(F)c(F)cc3F)=C(C)NC(C)=C2C(=O)Nc2cc(F)c(F)cc2F)ccc1O" is 20 µM or above.
// result criterion met

// query Confirm if TGI reported for the molecule COc1ccc2c(c1)C(C)Cc1c(ncnc1-n1cnc3cc(C)ccc31)N2C (stereo not given) is 20 µM or above.
// result criterion met

// query Confirm if TGI reported for the molecule "Cc1c2ccncc2c(C)c2c1[nH]c1ccccc12" is 20 µM or above.
// result criterion not met

###

Exercise: state measured TGI for each of the compounds provided.
System: OVCAR-5 ovarian
Assay: NCI tumour cell line growth inhibition, 48 h

// query Look up TGI: "COc1ccc(N=NC(=Nc2ccc(F)cc2)c2ccc(N(CCC#N)CCC#N)cc2)cc1"
// result > 100 µM

// query Look up TGI: "Nc1nc(Nc2ccc(Cl)cc2)sc1C(=O)c1cccs1"
// result > 100 µM

// query Look up TGI: COCOc1ccc(C2(O)Oc3cc(OCOC)ccc3C2C)c(O)c1 (centres undefined)
// result 31.3 µM

// query Look up TGI: "CCC(=O)Nc1ccc(N=NN(C)C)cc1"
// result > 100 µM

// query Look up TGI: CC1CN1c1c(C(=O)/C=C/c2ccc(Cl)cc2)c(-c2ccccc2)nn(C)c1=O (centres undefined)
// result > 10 µM

// query Look up TGI: COC(=O)c1cc(C)ccc1CC(Cc1ccc(C)cc1)C(=O)OC (centres undefined)
// result > 85.4 µM

// query Look up TGI: "CCCCN(CCCC)C(=C(C(Cl)=C(Cl)Cl)[N+](=O)[O-])N(CCCC)CCCC"
// result > 100 µM

// query Look up TGI: "CC(C)CCn1nc(N)c2nc3ccccc3nc21"
// result > 100 µM

// query Look up TGI: CC(C)(C)OC(=O)N1N=NC2C1C1CC(OCc3ccccc3)(OCc3ccccc3)C2O1 (centres undefined)
// result > 100 µM

// query Look up TGI: "N#Cc1ccc(OC(=O)Nc2ccc(Cl)c(Cl)c2)cc1"
// result > 100 µM

// query Look up TGI: "C/C(=N\NC(=S)N1CC2CCC(CC2)C1)c1ccccn1"
// result 2.73 µM

// query Look up TGI: OCC(O)C(O)C(O)/C=N/Nc1nc(O)c(/C=C2\C=Nc3ccccc32)[nH]1 (centres undefined)
// result > 100 µM

// query Look up TGI: "O=c1c2ccccc2nc(-c2ccccc2)n1NC(=S)Nc1ccccc1"
// result > 100 µM

// query Look up TGI: "COc1ccc(/C=C(/c2ccccc2)[N+](=O)[O-])cc1"
// result 3.26 µM

// query Look up TGI: "NC(=O)c1ncn2c1NC(=O)CC2"
// result > 100 µM

// query Look up TGI: "CCN(CC)c1cc2oc3cc(N)cc(=N)c-3nc2cc1C"
// result 7.4 µM

// query Look up TGI: "Cn1cc(-c2ccc(-c3cncc(Cl)c3N3CCC4(CCNC4=O)CC3)cc2)cn1"
// result > 100 µM

// query Look up TGI: COc1cc(C(=O)N2CCc3c([nH]c4c([N+](=O)[O-])c(OC)ccc34)C2C)cc(OC)c1OC (centres undefined)
// result > 100 µM

// query Look up TGI: "O=C(N/N=C/c1c(Cl)cccc1Cl)c1ccc(C(F)(F)F)nc1Nc1cccc(C(F)(F)F)c1"
// result > 30.2 µM

// query Look up TGI: "CN1COCc2cc3cc4c(cc3nc21)OCCO4"
// result > 100 µM

// query Look up TGI: O=C1CCCc2cc3c(cc21)CC1(C3)Cc2ccc3c(c2C1)C(=O)CCC3 (centres undefined)
// result > 100 µM

// query Look up TGI: "CCc1nc2cc3cccnc3c(Cl)c2[nH]c1=O"
// result > 100 µM

// query Look up TGI: "COc1ccc(Cc2cnc(NC(=O)c3ccc4c(c3)OCCO4)s2)cc1"
// result > 72.6 µM

// query Look up TGI: O=C(OCC(OC(=O)c1ccccc1)C(OC(=O)c1ccccc1)C(OC(=O)c1ccccc1)c1cnn(-c2ccccc2)n1)c1ccccc1 (centres undefined)
// result > 100 µM

// query Look up TGI: "OCCNCCOc1ccc(/C(=C(/Cl)c2ccccc2)c2ccccc2)cc1"
// result 28.3 µM

// query Look up TGI: "Clc1ccc(N=CNc2ccc(-c3nc4ccccc4o3)cc2)cc1"
// result 99.6 µM

// query Look up TGI: "O=C1CSC(c2ccc(-c3nc4ccccc4s3)cc2)=N1"
// result > 100 µM

// query Look up TGI: "COC(=O)CCC1=C(CC(=O)OC)C(C)=N/C1=C\c1[nH]c(-c2ccc[nH]2)cc1OC"
// result 18.8 µM

// query Look up TGI: "C=C1CC[C@@H](C(C)C)C[C@@H]2[C@H]([C@H](O)C[C@]2(C)O)[C@@]2(C)CC[C@@H]1O2"
// result 26 µM

// query Look up TGI: "CCN(CC)CCNC(=O)c1ccc(C)c(OCc2ccccc2)c1[N+](=O)[O-]"
// result 81.3 µM

// query Look up TGI: Cc1c(C#N)c(N)n(C2OCC(O)C(O)C2O)c(=S)c1C#N (centres undefined)
// result > 100 µM

// query Look up TGI: "Nc1nc(Nc2ccccc2)sc1C(=O)c1c[nH]c2ccccc12"
// result 24.9 µM

// query Look up TGI: CCOC(=O)C(C)c1nc2c(Cl)c3ncccc3cc2[nH]c1=O (centres undefined)
// result > 100 µM

// query Look up TGI: "CSC(SC)=C1C(=O)N(c2ccccc2)N=C1C"
// result > 100 µM

// query Look up TGI: CC(C)(C)OC(=O)C1C(=O)NC(=O)CC1C(COCc1ccccc1)OCc1ccccc1 (centres undefined)
// result 41.1 µM

// query Look up TGI: CC(=O)OC1C2CCC1C1C2C2(Cl)C(Cl)=C(Cl)C1(Cl)C2(Cl)Cl (centres undefined)
// result 23.1 µM

// query Look up TGI: CC1=CC(=O)CC2(C)CCC(C(C)CC(=O)CC(C)C)CC12 (centres undefined)
// result > 100 µM

// query Look up TGI: "O=C1C(=O)N(c2cc(Cl)ccc2Cl)C(=O)C(=O)C1c1nc2ccccc2o1"
// result > 100 µM

// query Look up TGI: "CCCCCCCCCCN1CCC(N2CCCCC2)CC1"
// result 14.4 µM

###

Exercise: state measured TGI for each of the molecules provided.
Tested on: MDA-MB-231 breast
Assay: NCI tumour cell line growth inhibition, 48 h

// query Look up TGI: "CC1(C)[C@@H](Cn2cnc3c(Cl)nc(N)nc32)CC[C@@]1(C)CO"
// result > 100 µM

// query Look up TGI: "Cc1cc2nc(-c3cc(C(C)(C)C)c(O)c(C(C)(C)C)c3)[nH]c2cc1C"
// result > 100 µM

// query Look up TGI: CC1=CC(=O)CC2(C)CCC(C(C)CC(=O)CC(C)C)CC12 (stereo unspecified)
// result > 100 µM

// query Look up TGI: CC(O)CC(O)(C(F)(F)F)C(F)(F)F (stereo unspecified)
// result > 10 µM

// query Look up TGI: "CC1=C(C(=O)Nc2ccccc2)C(c2ccc(C3C(C(=O)Nc4ccccc4)=C(C)NC(C)=C3C(=O)Nc3ccccc3)cc2)C(C(=O)Nc2ccccc2)=C(C)N1"
// result 13.4 µM

// query Look up TGI: OC1(c2ccc(Cl)cc2)c2ccc(CN3CCCC3)cc2C2=NCCN21 (stereo unspecified)
// result 27.3 µM

// query Look up TGI: "COc1ccc2c(Oc3ccc(NC(=O)c4c(C)n(CC(C)(C)O)n(-c5ccccc5)c4=O)nc3)ccnc2c1"
// result > 93.5 µM

// query Look up TGI: "Cc1cc(C)n(-c2nnc3n2N=C(c2ccc(-c4ccccc4)cc2)CS3)n1"
// result > 100 µM

// query Look up TGI: "COC(=O)C1(Cc2ccc3c(c2)CCC3)Cc2cc3c(cc2C1)CCC3"
// result > 100 µM

// query Look up TGI: "O=c1n(Cc2ccccc2)c(=O)n2c(=O)n(Cc3ccccc3)c(=O)n12"
// result > 100 µM

// query Look up TGI: CCOC(=O)C(C)c1nc2c(Cl)c3ncccc3cc2[nH]c1=O (stereo unspecified)
// result > 100 µM

// query Look up TGI: CCCCCCCCCCCCOC1C(C(CC(=O)NCCN2CCCC2)NS(=O)(=O)c2cc(Cl)cc(Cl)c2)OC2OC(C)(C)OC21 (stereo unspecified)
// result 3.23 µM

// query Look up TGI: O=C(O)c1c2c(cc3c1CC1(Cc4ccccc4C1=O)C3)CCC2 (stereo unspecified)
// result > 100 µM

// query Look up TGI: O=C(O)c1ccc2c(c1)CC1(C2)Cc2cc3c(cc2C1=O)CCC3 (stereo unspecified)
// result > 100 µM

// query Look up TGI: "CCC(=O)Nc1ccc(N=NN(C)C)cc1"
// result > 100 µM

// query Look up TGI: "CCCCCCCCCCN1CCC(N2CCCCC2)CC1"
// result 3.26 µM

// query Look up TGI: CN(C)P(=O)(Oc1occc1C(O)Cc1ccccc1)N(C)C (stereo unspecified)
// result > 100 µM

// query Look up TGI: O=C(O)CC(NC(=O)/C(=C/c1ccccc1O)NC(=O)c1ccccc1)C(=O)O (stereo unspecified)
// result > 100 µM

// query Look up TGI: "N#Cc1ccc(OC(=O)Nc2ccc(Cl)c(Cl)c2)cc1"
// result 23.3 µM

// query Look up TGI: COc1ccc2c(c1)C(C)Cc1c(ncnc1-n1cnc3cc(C)ccc31)N2C (stereo unspecified)
// result 18.6 µM

// query Look up TGI: COP(=O)(OC)C12CCOCCN1c1ccccc1C2=O (stereo unspecified)
// result > 100 µM
